Cited source for all entries: patent US9090549B2

System: P. falciparum FCM29
Test: microbe, parasite or virus in culture
Details: Plasmodium falciparum, 48 h, read-out: IC50 against strain FCM29
OBSERVATION TYPE: IC50 (nM)
Give bare numbers, in nM.

Per the record, CCN(CC)CCCC(C)Nc1ccnc2cc(Cl)ccc12 (stereo not shown) [chloroquine, reference compound] has IC50 of 879

* * *

Answer each item with its documented melting point.

Some compounds with recorded melting point:
COMPOUND | OBSERVATION TYPE | OBSERVED VALUE
COC(=O)c1ccc(C(=O)C2=C(C)C(=O)c3ccccc3C2=O)cc1 | melting point | 162 °C
CC1=C(Cc2ccccc2)C(=O)C2C=CC=CC2C1=O (stereo not drawn) | melting point | 103 to 104 °C
CC1=C(C(=O)c2ccc(Br)cc2)C(=O)C2C(O)=CC=CC2C1=O (stereo not drawn) | melting point | 161 to 162 °C
CC1=C(Cc2ccc(NC(=O)OC(C)(C)C)cc2)C(=O)C2C=CC=CC2C1=O (stereo not drawn) | melting point | 148 to 149 °C
CC1=C(C(=O)c2ccc(O)cc2)C(=O)C2C=CC=CC2C1=O (stereo not drawn) | melting point | 184 to 185 °C

Hey, can you go through the list below and give me melting point for every item?
1. COc1ccc(CC2=C(C)C(=O)C3C=CC=CC3C2=O)c(OC)c1 (stereo not drawn)
2. CC1=C(C(=O)c2ccc(C#N)cc2)C(=O)C2C=CC=CC2C1=O (stereo not drawn)
3. CC1=C(Cc2ccc(C(C)(C)C)cc2)C(=O)c2c(O)cccc2C1=O
4. COc1c(C)c(Cc2ccc(N3CCN(Cc4ccc(C(C)(C)C)cc4)CC3)cc2)c(OC)c2ccccc12
5. CC1=C(Cc2ccc(O)cc2)C(=O)C2C=CC=CC2C1=O (stereo not drawn)

stdout:
1: 103 to 105 °C; 2: 185 to 186 °C; 3: 112 to 113 °C; 4: 63 to 65 °C; 5: 165 to 166 °C

Take each entry in turn and give its melting point.
1. CC1=C(Cc2ccc(C)cc2)C(=O)C2C=CC=CC2C1=O (stereo not drawn)
2. CC1=C(Cc2ccc(-c3ccc(C(C)(C)C)cc3)cc2)C(=O)c2ccccc2C1=O
3. COc1cc(CC2=C(C)C(=O)C3C=CC=CC3C2=O)cc(OC)c1 (stereo not drawn)
4. COc1cccc(CC2=C(C)C(=O)c3ccccc3C2=O)c1
5. COc1c(C)c(Cc2ccc(Cl)cc2)c(OC)c2ccccc12
6. CC1=C(C(=O)c2ccc(C(C)(C)C)cc2)C(=O)C2C=CC=CC2C1=O (stereo not drawn)
7. CC1=C(C(=O)c2ccc([N+](=O)[O-])cc2)C(=O)C2C=CC=CC2C1=O (stereo not drawn)

stdout:
1. 225 °C (dec.)
2. 112 to 114 °C
3. 127 to 128 °C
4. 87 to 88 °C
5. 101 to 102 °C
6. 64 to 65 °C
7. 170 to 171 °C

Batch lookup, melting point per entry.
1. CC1=C(Cc2ccc(N)cc2)C(=O)C2C=CC=CC2C1=O (stereo not drawn)
2. COc1ccc(C(=O)C2=C(C)C(=O)C3C=CC=CC3C2=O)cc1 (stereo not drawn)
3. CC1=C(Cc2ccc(Br)cc2)C(=O)C2C=CC=CC2C1=O (stereo not drawn)
4. CC1=C(Cc2ccc(C#N)cc2)C(=O)C2C=CC=CC2C1=O (stereo not drawn)

stdout:
152 to 153 °C
150 to 151 °C
121 to 122 °C
159 to 160 °C
